The reported measurements were obtained from paper PMC9380258.

test system: HLA-E; assay type: binding, human; settings: pH 8
Each record here notes measured Tm (°C) 12M, HLA-E-β2M-peptide complex thermal stability.
Just the number please, in °C, no unit attached.

Some solved cases for reference:
{"chain_sequence": "RLPAKAPLL [Mtb44]", "assayed_target": "HLA-E", "result_units": "°C", "observed_value": 50.6}
{"chain_sequence": "RMYSPTSIL [RL9HIV]", "assayed_target": "HLA-E", "result_units": "°C", "observed_value": 38.2}
{"chain_sequence": "SQAPLPCVL [BZLF1]", "assayed_target": "HLA-E", "result_units": "°C", "observed_value": 37.7}
{"chain_sequence": "RMYNPTNIL [RL9SIV]", "assayed_target": "HLA-E", "result_units": "°C", "observed_value": 35.2}
{"chain_sequence": "QAISPRTLN [Neg Ctrl pep, reference compound]", "assayed_target": "HLA-E", "result_units": "°C", "observed_value": 31.8}

**Q:** State its Tm (°C) 12M, HLA-E-β2M-peptide complex thermal stability on HLA-E: VMAPRTVLL [VL9, reference compound]
**A:** 49.4

**Q:** State its Tm (°C) 12M, HLA-E-β2M-peptide complex thermal stability on HLA-E: RMAATAQVL [Mtb14]
**A:** 37.8
